# Test system: Rattus norvegicus
# assay_method_text: Hypoglycemic activity by lowering blood glucose in streptozotocin-diabetic rats by 20% after oral administration.
# Type: functional
Criterion: ED20 strictly less than 0.6 mmol/kg. Met: label 1. Not met: label 0.

Q: Hello, I'm reviewing records and need to know if ED20 of C[S+]([O-])CCC(=O)NCCc1ccc(S(=O)(=O)N2CCN(C3CCCCC3)C2=N)cc1 (configuration not stated) is below 0.6 mmol/kg. Could you check?
Ans: label 0

Q: Same thing, different compound: N=C1N(C2CCCCC2)CCN1S(=O)(=O)c1ccc(CCNC(=O)CN)cc1
Ans: label 0

Q: Same thing, different compound: N=C1N(C2CCCCC2)CCN1S(=O)(=O)c1ccc(CCNC(=O)c2ccco2)cc1
Ans: label 1

Q: Same thing, different compound: CCCCOC(=O)NCCc1ccc(S(=O)(=O)N2CCN(C3CCCCC3)C2=N)cc1
Ans: label 0

Q: Same thing, different compound: N=C1N(C2CCCCC2)CCN1S(=O)(=O)c1ccc(CCNC(=O)CCN)cc1
Ans: label 0

Q: Same thing, different compound: C/C=C/C(=O)NCCc1ccc(S(=O)(=O)N2CCN(C3CCCCC3)C2=N)cc1
Ans: label 1

Q: Same thing, different compound: CC(Nc1ccccc1)C(=O)NCCc1ccc(S(=O)(=O)N2CCN(C3CCCCC3)C2=N)cc1 (configuration not stated)
Ans: label 1

----------
Kindly supply the reported log10 ED50 values for the records listed here.
# System: Rattus norvegicus
# assay_method_text: Hypoglycemic activity by lowering blood glucose in normal rats by 50% after oral administration.
# Format: functional
Plainly stated, the numbers are log10 of ED50 given in µmol/kg.

>  <compound>
N=C1N(C2CCCCC2)CCN1S(=O)(=O)c1ccc(CCNC=O)cc1

>  <recorded_measurement>
2.41

$$$$
>  <compound>
CCCSCC(=O)NCCc1ccc(S(=O)(=O)N2CCN(C3CCCCC3)C2=N)cc1

>  <recorded_measurement>
2.74

$$$$
>  <compound>
CC(C(=O)NCCc1ccc(S(=O)(=O)N2CCN(C3CCCCC3)C2=N)cc1)N(C)C (configuration not stated)

>  <recorded_measurement>
1.79

$$$$
>  <compound>
CCC/C=C/C(=O)NCCc1ccc(S(=O)(=O)N2CCN(C3CCCCC3)C2=N)cc1

>  <recorded_measurement>
1.34

$$$$

Look up log10 ED50 for the entries below, preserving their order.
1. C/C=C/C(=O)NCCc1ccc(S(=O)(=O)N2CCN(C3CCCCC3)C2=N)cc1
2. N=C1N(C2CCCCC2)CCN1S(=O)(=O)c1ccc(CCNC(=O)c2ccccc2Cl)cc1
3. CSCCC(=O)NCCc1ccc(S(=O)(=O)N2CCN(C3CCCCC3)C2=N)cc1
4. N=C1N(C2CCCCC2)CCN1S(=O)(=O)c1ccc(CCNC(=O)C2CC2)cc1
5. COc1cccc(C(=O)NCCc2ccc(S(=O)(=O)N3CCN(C4CCCCC4)C3=N)cc2)c1

Ans:
1: 0.98; 2: 2.36; 3: 2.30; 4: 2.18; 5: 2.58

----------
# Test system: Rattus norvegicus
# assay_method_text: Hypoglycemic activity by lowering blood glucose in streptozotocin-diabetic rats by 20% after oral administration.
# Assay type: functional
Criterion: ED20 strictly less than 0.6 mmol/kg. Met: Satisfied. Not met: Not satisfied.

Use these answered entries as a reference point.
>  <compound>
CCC/C=C/C(=O)NCCc1ccc(S(=O)(=O)N2CCN(C3CCCCC3)C2=N)cc1

>  <group>
Not satisfied

$$$$
>  <compound>
Cc1cc(C(=O)NCCc2ccc(S(=O)(=O)N3CCN(C4CCCCC4)C3=N)cc2)no1

>  <group>
Satisfied

$$$$
>  <compound>
CCSCC(=O)NCCc1ccc(S(=O)(=O)N2CCN(C3CCCCC3)C2=N)cc1

>  <group>
Satisfied

$$$$
>  <compound>
C=CCCC(=O)NCCc1ccc(S(=O)(=O)N2CCN(C3CCCCC3)C2=N)cc1

>  <group>
Satisfied

$$$$

In the following, a different compound is considered.
Q: Hello, I'm reviewing records and need to know if ED20 of CC[S+]([O-])CC(=O)NCCc1ccc(S(=O)(=O)N2CCN(C3CCCCC3)C2=N)cc1 (stereo not given) is below 0.6 mmol/kg. Could you check?
Ans: Not satisfied
